Recorded IC50, one value per entry.
target: KRAS G12C (amino acids 1-169) (Homo sapiens, UniProt P01116, G12C); experiment: SOS-catalyzed nucleotide exchange assay (Procedure B, BODIPY FL GDP displacement), KRAS G12C; conditions: read-out: KRAS G12C GNE IC50
Sequence (P01116 with tags, fused parts or gaps isoform P01116-2 G12C): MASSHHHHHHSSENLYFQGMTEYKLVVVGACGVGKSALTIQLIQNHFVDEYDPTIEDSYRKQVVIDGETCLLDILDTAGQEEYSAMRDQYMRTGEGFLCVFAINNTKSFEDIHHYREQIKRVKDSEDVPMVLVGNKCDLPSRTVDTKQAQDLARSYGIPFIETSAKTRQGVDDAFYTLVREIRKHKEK

# count of solved cases: 3
[[record]]
compound = "C#Cc1cccc2cccc(-c3nncc4c3sc3nc(OC[C@@]56CCCN5C[C@H](F)C6)nc(N5CCOC[C@@](C)(O)C5)c34)c12"
reported_value = "0.645 µM"

[[record]]
compound = "C#Cc1c(Cl)cc2[nH]ncc2c1-c1nccc2c1sc1nc(OC[C@@]34CCCN3C[C@H](F)C4)nc(N3CCOC[C@@](C)(O)C3)c12"
reported_value = "0.0154 µM"

[[record]]
compound = "CO[C@]1(C)COCCN(c2nc(OC[C@@]34CCCN3C[C@H](F)C4)nc3sc4c(-c5c(C(F)(F)F)c(C)cc6[nH]ncc56)nccc4c23)C1"
reported_value = "0.59 µM"


Entry CCC1CC(F)(F)c2cc3[nH]ncc3c(-c3nccc4c3sc3nc(OC[C@@]56CCCN5C[C@H](F)C6)nc(N5CCOC[C@@](C)(O)C5)c34)c21 (some centres unmarked) has what IC50?
0.0103 µM

Values compiled from patent US20260176289A1.
